measurementTarget: Histone deacetylase 3 (Homo sapiens) (UniProt O15379)
Sequence (O15379 whole entry, looked up): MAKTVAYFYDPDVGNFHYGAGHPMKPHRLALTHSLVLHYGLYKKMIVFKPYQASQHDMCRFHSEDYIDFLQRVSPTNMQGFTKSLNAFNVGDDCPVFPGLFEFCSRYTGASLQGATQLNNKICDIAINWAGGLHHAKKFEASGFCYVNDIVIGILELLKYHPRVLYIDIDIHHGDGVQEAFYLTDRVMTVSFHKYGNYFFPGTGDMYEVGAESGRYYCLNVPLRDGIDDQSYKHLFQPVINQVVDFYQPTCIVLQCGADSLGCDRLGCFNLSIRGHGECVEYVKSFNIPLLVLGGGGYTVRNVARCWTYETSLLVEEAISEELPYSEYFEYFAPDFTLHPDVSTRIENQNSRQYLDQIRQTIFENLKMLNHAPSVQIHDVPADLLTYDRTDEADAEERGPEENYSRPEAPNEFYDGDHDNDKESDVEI
assayName: HDAC3 deacetylase inhibitors, primary screen, biochemical, fluorescence, cell-free homogeneous (AID 2718)
conditionNotes: recombinant HDAC3, fluorogenic peptide/trypsin coupled, at 8.3 µM
Among all 320,000 compounds or so, about 480 (0.15%) were called active. Another 1% or so got no clear call; they are omitted. Rule as the data show it: active = inhibition above about 26% (passing the limit was not always enough); inconclusive = no clear call, values can overlap the other calls. Shown is part of a subset that was picked to be rich in actives.
Classes used: active, inactive

In [3]: df
Out[3]:
                                    molecule  answerlabel
 0        Cc1ccsc1C(=O)NNC(=O)COc1ccc(Br)cc1     inactive
 1  CSCCC(NC(=O)c1ccco1)C(=O)NCCc1ccc(F)cc1 (stereo unspecified)     inactive
 2  CS(=O)(=O)c1ccc(Cl)c(NC(=O)COC(=O)c2cccc(S(=O)(=O)N3CCCC3)c2)c1     inactive
 3  O=C(COC(=O)CCCNC(=O)c1ccc(Cl)cc1)Nc1cc(Cl)ccc1Cl     inactive
 4  CCCCCCC(=O)N(O)C1CC(=O)N(c2ccccc2)C1=O (stereo unspecified)       active
 5  COc1ccccc1-n1nnnc1SCC(=O)NC(=O)Cc1ccccc1     inactive
 6  CCCCCCCCCCOC(=O)Cn1c(COc2ccc(C)cc2)[n+](C)c2ccccc21       active
 7  CCOc1ccc(N2C(=O)CC(N(O)c3ccccc3)C2=O)cc1 (stereo unspecified)     inactive
 8  CSc1ncccc1C(=O)NCC(c1ccco1)N1CCCCC1 (stereo unspecified)     inactive
 9       CCOC(=O)Cn1c(-c2cccnc2Cl)nc2ccccc21     inactive
10  COc1cc(OC)cc(C(=O)NCC(=O)OCC(=O)NC(C)CCc2ccccc2)c1 (stereo unspecified)     inactive

* * *

measurementTarget: Histone deacetylase 3 (Homo sapiens) (UniProt O15379)
assayName: HDAC3 deacetylase inhibitors, primary screen, biochemical, fluorescence, cell-free homogeneous (AID 2718)
conditionNotes: recombinant HDAC3, fluorogenic peptide/trypsin coupled, at 8.3 µM
Out of some 320,000 compounds screened, about 480 (0.15%) were called active. Roughly 1% stayed inconclusive and do not appear here. No stated cut-off is given here; in the data, active means inhibition above about 26% (passing the limit was not always enough); inconclusive means no clear call, values can overlap the other calls. This excerpt belongs to a sample that is enriched for actives.
Outcomes: active, inactive

>>> print(df.to_string())
                                    compound  answerlabel
 0  C=CCOc1ccc(/C=C2\SC(=S)N(CCC(=O)O)C2=O)cc1     inactive
 1  CN(c1ccccc1)S(=O)(=O)c1cc(C(=O)N2CCN(c3ncccn3)CC2)ccc1Cl     inactive
 2  Cc1ccc(-c2nn(-c3ccccc3)cc2/C=C2\SC(=S)N(CCCCCC(=O)O)C2=O)o1       active
 3               Clc1ccc2nc(CSc3ccccc3)cn2c1     inactive
 4  CCN(C(=O)CSc1nnnn1-c1ccc(OC)cc1)C1CCS(=O)(=O)C1 (stereo unspecified)     inactive
 5  Cc1ccc(-c2nn(-c3ccccc3)cc2CN(Cc2ccccc2)C(=O)CCC(=O)O)o1     inactive
 6                Fc1ccc2cnc(-c3ccccc3)cc2c1     inactive
 7  O=C(COc1ccc(F)cc1Br)NCC1COc2ccccc2O1 (stereo unspecified)     inactive
 8  CCN(C(=O)COC(=O)c1ccccc1O)c1cccc2ccccc12     inactive
 9     COc1ccc(C(=O)OCc2cc(=O)n3ccsc3n2)cc1F     inactive
10  O=C(Cn1cnc2c(OCc3ccccc3)ncnc21)NCCCn1ccnc1     inactive
